testSystem: Beta-2 adrenergic receptor (Homo sapiens) (UniProt P07550)
Sequence (P07550 whole entry, looked up): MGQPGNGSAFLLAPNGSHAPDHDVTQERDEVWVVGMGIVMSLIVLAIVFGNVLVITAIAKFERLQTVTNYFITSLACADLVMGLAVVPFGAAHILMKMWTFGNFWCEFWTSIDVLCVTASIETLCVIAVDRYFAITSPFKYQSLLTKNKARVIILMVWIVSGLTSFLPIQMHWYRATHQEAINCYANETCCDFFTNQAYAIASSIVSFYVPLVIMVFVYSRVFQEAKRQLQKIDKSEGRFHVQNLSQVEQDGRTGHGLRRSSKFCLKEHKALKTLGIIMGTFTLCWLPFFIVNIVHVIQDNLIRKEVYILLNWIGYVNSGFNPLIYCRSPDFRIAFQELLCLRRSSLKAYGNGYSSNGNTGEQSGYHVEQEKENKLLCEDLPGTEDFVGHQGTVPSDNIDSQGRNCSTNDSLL
assayNotes: beta2AR agonists driving receptor internalization, pilot screen, cell-based, FAP fluorogen, flow cytometry, validation set (AID 504459);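 note: agonist-driven loss of surface beta2AR via internalization measured by FAP dye flow cytometry; reference of the scale not given here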
setupConditions: Am2.2-beta2AR cells, FAP surface receptor flow cytometry; at 10 µM; stronger effect = higher value
metricName: response (%)

molecule=COc1cc(/C=C2\C(=O)NC(=O)N(c3ccccc3)C2=O)c([N+](=O)[O-])cc1OC metricname=response observedvalue=0.05
molecule=O=C1C(=O)c2ccccc2-c2ccccc21 metricname=response observedvalue=112
molecule=CCOc1ccc(N2C(=O)NC(=O)/C(=C\c3cc(OC)c(OC)cc3[N+](=O)[O-])C2=O)cc1 metricname=response observedvalue=7.81
molecule=COP(=S)(OC)SCN1C(=O)c2ccccc2C1=O metricname=response observedvalue=-10.4
molecule="Fc1ccc(C(OCCN2CCCC2)c2ccc(Br)cc2)cc1 (stereo not given)" metricname=response observedvalue=11.4
molecule=CN1CC[C@@]23CCCC[C@@H]2[C@@H]1Cc1ccc(O)cc13 metricname=response observedvalue=2.76
molecule="CC(=O)OC1C2CCC1C(N1CCCC1)CC2 (stereo not given)" metricname=response observedvalue=-10.9
molecule=COc1ccc(OC)c([C@@H](O)[C@H](C)NC(C)(C)C)c1 metricname=response observedvalue=14.8
molecule=CC(C)[C@H]1C(=O)N2CCC[C@H]2[C@]2(O)O[C@](NC(=O)[C@@H]3C=C4c5cccc6[nH]cc(c56)C[C@H]4N(C)C3)(C(C)C)C(=O)N12 metricname=response observedvalue=-24.6
molecule="C[C@H]1CCC/C=C/C2C[C@H](O)CC2[C@H](O)/C=C/C(=O)O1 (stereo not given in full)" metricname=response observedvalue=28.3

====

Tested on: Botulinum neurotoxin type F light chain protease (Clostridium botulinum)
assayNotes: Botulinum neurotoxin type F light chain protease inhibition, multiplex microsphere flow cytometry, validation set (AID 588459)
setupConditions: multiplex microsphere protease substrate cleavage assay, at 10 µM, stronger effect = higher value
Recorded measurements of inhibition, one per entry
metricName: inhibition (%)

molecule="COc1ccc(CCN2C(=O)CSC2c2ccc(OC)c(OC)c2)cc1OC (stereo unspecified)" testsystem="Botulinum neurotoxin type F light chain protease (Clostridium botulinum)" metricname=inhibition unit=% observedvalue=-3.4
molecule=C[C@]12CCC(=O)C(O)=C1CC[C@@H]1[C@@H]2CC[C@]2(C)C(=O)CC[C@@H]12 testsystem="Botulinum neurotoxin type F light chain protease (Clostridium botulinum)" metricname=inhibition unit=% observedvalue=0.8
molecule="OCCOCCN1CCN(C(c2ccccc2)c2ccc(Cl)cc2)CC1 (stereo unspecified)" testsystem="Botulinum neurotoxin type F light chain protease (Clostridium botulinum)" metricname=inhibition unit=% observedvalue=0.1
molecule=Cc1ncc([N+](=O)[O-])n1CCO testsystem="Botulinum neurotoxin type F light chain protease (Clostridium botulinum)" metricname=inhibition unit=% observedvalue=3
molecule=CC(C)c1ccc(/C=C/C(=O)O)cc1 testsystem="Botulinum neurotoxin type F light chain protease (Clostridium botulinum)" metricname=inhibition unit=% observedvalue=1.6
molecule=CCOc1ccc(NC(=O)N[C@@H](CCSC)C(=O)OC)cc1 testsystem="Botulinum neurotoxin type F light chain protease (Clostridium botulinum)" metricname=inhibition unit=% observedvalue=-0.6

====

System: Botulinum neurotoxin type F light chain protease (Clostridium botulinum)
assayNotes: Botulinum neurotoxin type F light chain protease inhibition, multiplex microsphere flow cytometry, validation set (AID 588459)
setupConditions: multiplex microsphere protease substrate cleavage assay, at 10 µM, stronger effect = higher value
Recorded measurements of inhibition, one per entry
metricName: inhibition (%)

molecule=Nc1nc2c(ncn2COC(CO)CO)c(=O)[nH]1 metricname=inhibition observedvalue=-0.4
molecule=CCc1ccc(CN(C)Cc2nc(Cc3ccccc3)no2)nc1 metricname=inhibition observedvalue=1.4
molecule=COC(=O)C1=C(C)NC(C)=C(C(=O)OC)C1c1ccccc1[N+](=O)[O-] metricname=inhibition observedvalue=5.8
molecule=COc1ccc(CCN2CCC(Nc3nc4ccccc4n3Cc3ccc(F)cc3)CC2)cc1 metricname=inhibition observedvalue=-1.8
molecule=O=C(COc1ccc2c(-c3ccccc3)cc(=O)oc2c1)NCc1cccs1 metricname=inhibition observedvalue=-0.2
molecule=CC1=C(C)C(=O)C(CCCCC#CCCCC#CCO)=C(C)C1=O metricname=inhibition observedvalue=-2.1
molecule=Cc1ccc(C(=O)N2CC3(C(C)C)CN(C(=O)c4ccc(C)cc4)CC(C(C)C)(C2)C3=O)cc1 metricname=inhibition observedvalue=5
molecule=Nc1nc(Cl)nc2c1ncn2[C@@H]1O[C@H](CO)[C@@H](O)[C@H]1O metricname=inhibition observedvalue=3.3
molecule=CN1C(C(=O)Nc2ccccn2)=C(O)c2sccc2S1(=O)=O metricname=inhibition observedvalue=0.5
molecule=CC(=O)N(C(C)=O)c1nc2nc(C)cc(C)n2n1 metricname=inhibition observedvalue=5.2
molecule=C[C@H]1CC[C@@]2(C)[C@@H](CC[C@@H]3[C@@H]2CC[C@]2(C)[C@@H](O)CC[C@@H]32)C1 metricname=inhibition observedvalue=2
molecule=COc1ccccc1C(=O)Nc1cc2cc(Br)ccc2oc1=O metricname=inhibition observedvalue=3.8
molecule="CCC(NC(C)C)C(O)c1ccc(O)c(O)c1 (configuration not stated)" metricname=inhibition observedvalue=-5.4
molecule="CO/N=C(\\C(=O)N[C@@H]1C(=O)N2C(C(=O)O)=C(COC(C)=O)CS[C@H]12)c1csc(N)n1 (stereo in doubt)" metricname=inhibition observedvalue=2.7
molecule=O=C(O)CCCc1ccc(N(CCCl)CCCl)cc1 metricname=inhibition observedvalue=-4
molecule="CO[C@@H]1O[C@@H]2COC(c3ccccc3)O[C@@H]2[C@@H](OC)[C@@H]1O (some centres not stated)" metricname=inhibition observedvalue=1.6
molecule=Cn1c(=O)[nH]c(=O)c2c1nc(NCc1ccco1)n2CCCc1ccccc1 metricname=inhibition observedvalue=-0.8
molecule=Nc1c2c(nc3ccccc13)CCCC2 metricname=inhibition observedvalue=5.3
molecule="Cc1nnc(SCC(=O)N2CCCC(C(=O)c3ccc(Cl)cc3)C2)o1 (configuration not stated)" metricname=inhibition observedvalue=2.8
molecule=O=C(NCCc1c[nH]c2ccccc12)c1cccnc1 metricname=inhibition observedvalue=-2.9
molecule=CC#C[C@]1(O)CC[C@H]2[C@@H]3CCC4=CC(=O)CCC4=C3[C@@H](c3ccc(N(C)C)cc3)C[C@@]21C metricname=inhibition observedvalue=-3.9
molecule=Cc1nc(NCc2ccco2)c(C#N)c2c1COC(C)(C)C2 metricname=inhibition observedvalue=1

====

Recorded measurements of inhibition, one per entry
testSystem: Lethal factor (Bacillus anthracis) (UniProt P15917)
assayNotes: Lethal factor protease inhibitors, Bacillus anthracis, multiplex microsphere cleavage assay, validation set (AID 588461)
setupConditions: flow cytometry, at 10 µM, stronger effect = higher value
metricName: inhibition (%)

compound="O[C@H]1COC2C1OC[C@@H]2O (stereo not given in full)" metricname=inhibition unit=% observedvalue=0
compound=N#Cc1cc2c([nH]c1=O)CCCC2 metricname=inhibition unit=% observedvalue=2.6
compound=Cc1nnc(SCC2=C(C(=O)O)N3C(=O)[C@@H](NC(=O)Cn4cnnn4)[C@H]3SC2)s1 metricname=inhibition unit=% observedvalue=0.6
compound=CC(=O)OCC(=O)[C@@]1(O)CC[C@H]2[C@@H]3CCC4=CC(=O)C=C[C@]4(C)[C@H]3[C@@H](O)C[C@@]21C metricname=inhibition unit=% observedvalue=-2.4
compound="COc1ccc(OC(C)C(=O)Nc2ccccc2F)cc1 (stereo not given)" metricname=inhibition unit=% observedvalue=1.9
compound=O=C(Oc1ccc2c3c(c(=O)oc2c1)CCCC3)c1ccco1 metricname=inhibition unit=% observedvalue=-3.9
compound=COC(=O)c1cc(-c2c(C)oc3cc(OC)ccc3c2=O)c(C)o1 metricname=inhibition unit=% observedvalue=-6.6
compound="Cc1ccc(C(=O)Nc2ccccc2C(=O)NC(C(=O)O)C(C)C)cc1 (stereo not given)" metricname=inhibition unit=% observedvalue=-2
compound=C[C@]12CC[C@@H]3c4ccc(O)cc4CC[C@H]3[C@@H]1C[C@@H](O)[C@@H]2O[C@@H]1O[C@H](C(=O)O)[C@@H](O)[C@H](O)[C@H]1O metricname=inhibition unit=% observedvalue=-6.5
compound=COc1cccc(-n2c(C)c3c(OC)cccc(=O)c3c2C)c1 metricname=inhibition unit=% observedvalue=-13.5

====

testSystem: Beta-2 adrenergic receptor (Homo sapiens) (UniProt P07550)
assayNotes: beta2AR agonists driving receptor internalization, pilot screen, cell-based, FAP fluorogen, flow cytometry, validation set (AID 504459);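 note: agonist-driven loss of surface beta2AR via internalization measured by FAP dye flow cytometry; reference of the scale not given here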
setupConditions: Am2.2-beta2AR cells, FAP surface receptor flow cytometry; at 10 µM; stronger effect = higher value
Activity calls are given as the source filed them.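 Rule for the calls: active = percent response above 42, roughly 3 SD of non-fluorescent test compounds; inactive = the rest.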
Recorded measurements of response, one per entry
metricName: response

compound=O=C1C=Cc2ccccc2C1=O observedvalue="-20.4% (inactive)"
compound=CC(C)[N+](C)(CCC(C(N)=O)(c1ccccc1)c1ccccc1)C(C)C observedvalue="9.5% (inactive)"
compound="NCC(O)c1ccc(O)cc1 (configuration not stated)" observedvalue="8.68% (inactive)"
compound=CC12CN3CC(C)(CN(C1)C31CCOCC1)C2=O observedvalue="3.7% (inactive)"
compound=Cn1c(O)c(C=NCCc2c[nH]c3ccccc23)c(=O)n(C)c1=O observedvalue="-8.95% (inactive)"
compound=C[C@]12CC[C@@H](O)C[C@@H]1CC[C@@H]1[C@@H]2CC[C@]2(C)[C@@H](O)CC[C@@H]12 observedvalue="0.4% (inactive)"
compound=CC(C)CCC1(CN2CCCC2=O)C(=O)NC(=O)NC1=O observedvalue="5.39% (inactive)"
compound="Cc1cc(Cl)ccc1OC(C)C(=O)O (configuration not stated)" observedvalue="-8.83% (inactive)"
compound="CCCC[N+]1(C)[C@@H]2CC(OC(=O)[C@H](CO)c3ccccc3)C[C@H]1[C@@H]1O[C@@H]12 (some centres not stated)" observedvalue="-2.08% (inactive)"
compound=C[C@]12CC[C@@H](O)C[C@@H]1CC[C@@H]1[C@@H]2CC[C@]2(C)C(=O)CC[C@@H]12 observedvalue="20.4% (inactive)"
compound="CC12CN3CC(C)(CN(C1)C3c1cccs1)C2O (configuration not stated)" observedvalue="-7.61% (inactive)"
compound=NC(=O)CN1CCCC1=O observedvalue="-20.5% (inactive)"

These measurements were taken from PubChem BioAssay.
